- test-name: cAMP Responsive Elements (CRE) small molecule agonists, cell-based qHTS assay: qHTS cell viability counter screen (AID 2060914);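 also: viability read after 3 h of compound exposure; % is scaled to controls: 0 for no effect and ±100 for the full control effect; nearly all actives have a fitted effect of over 50% in size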
- condition-label: CRE-bla HEK293T viability, CellTiter-Glo luminescence, 5 h; series mostly up to 92.4 µM
Inconclusive results are not listed. Calls of active or inactive are those of the source. Calls follow the shape of the dose curve; as a rule, active = well fitted cell-killing curve with a large enough effect in the repeat runs; inconclusive = weak or mixed curves, or effect the other way; inactive = flat fitted curve, though single readings scatter.
readout: activity change, negative = cytotoxicity

# annotated cases, reported activity change, negative = cytotoxicity shown
INSERT INTO measurements (molecule, assay_result) VALUES
  ('COc1ccc(C#N)cc1', 'inactive'),
  ('O=Cc1cccc([N+](=O)[O-])c1', 'inactive'),
  ('CCCC(=O)OCCc1ccccc1', 'inactive'),
  ('CN1CCN(CCCN2c3ccccc3Sc3ccc(Cl)cc32)CC1', 'inactive'),
  ('CNC(=O)[C@H]1O[C@@H](n2cnc3c(NCc4cc(Cl)ccc4OCc4cc(C)no4)ncnc32)[C@H](O)[C@@H]1N', 'inactive');

Input CCC(C)C(=O)OC (stereo not given) . Output activity change, negative = cytotoxicity: inactive

Input CCCCCCCCOCCC#N . Output activity change, negative = cytotoxicity: inactive

Input OC1(c2ccc(Cl)cc2)CCNCC1 . Output activity change, negative = cytotoxicity: inactive

Input CCCCOC(O)CC (stereo not given) . Output activity change, negative = cytotoxicity: inactive

Input CCCCN1C=CN(C)C1 . Output activity change, negative = cytotoxicity: 2.49% [at 18.9 µM] (inactive)

Input CCCCN1CCCC[C@H]1C(=O)Nc1c(C)cccc1C . Output activity change, negative = cytotoxicity: inactive

Input Nc1ccc(F)cc1F . Output activity change, negative = cytotoxicity: inactive

* * *

- test-name: cAMP Responsive Elements (CRE) small molecule antagonists, cell-based qHTS assay: qHTS cell viability counter screen (AID 2060913); also: % is scaled to controls: 0 for no effect and ±100 for the full control effect; nearly all actives have a fitted effect of over 40% in size
- condition-label: CRE-bla HEK293T viability, CellTiter-Glo luminescence, 5 h; series mostly up to 92.4 µM
Inconclusive results are not listed. The source made the active and inactive calls. Calls follow the shape of the dose curve; as a rule, active = well fitted cell-killing curve with a large enough effect in the repeat runs; inconclusive = weak or mixed curves, or effect the other way; inactive = flat fitted curve, though single readings scatter.
readout: viability change, negative = cytotoxic

INSERT INTO assay_data (molecule, assay_result) VALUES
  ('CCCC(=O)OCCc1ccccc1', 'inactive'),
  ('Oc1ccc2cc(SSc3ccc4cc(O)ccc4c3)ccc2c1', 'inactive'),
  ('Cc1cc(CC(=O)O)c(C)n1-c1ccc(Cl)cc1', 'inactive'),
  ('O=C(CO)[C@@H](O)[C@H](O)[C@H](O)CO', 'inactive'),
  ('O=C(OC(=O)c1ccccc1)c1ccccc1', 'inactive');

Please turn your attention to the following entry.
Input CC(=O)Nc1ccc(C)cc1C . Output viability change, negative = cytotoxic: inactive

* * *

- test-name: cAMP Responsive Elements (CRE) small molecule agonists, cell-based qHTS assay: qHTS cell viability counter screen (AID 2060914);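 also: viability read after 3 h of compound exposure; % is scaled to controls: 0 for no effect and ±100 for the full control effect; nearly all actives have a fitted effect of over 50% in size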
- condition-label: CRE-bla HEK293T viability, CellTiter-Glo luminescence, 5 h; series mostly up to 92.4 µM
Records with an inconclusive call do not appear. Activity calls are given as the source filed them. Calls follow the shape of the dose curve; as a rule, active = well fitted cell-killing curve with a large enough effect in the repeat runs; inconclusive = weak or mixed curves, or effect the other way; inactive = flat fitted curve, though single readings scatter.
readout: activity change, negative = cytotoxicity

# annotated cases, reported activity change, negative = cytotoxicity shown
INSERT INTO results (compound, assay_result) VALUES
  ('COc1ccc2cc1Oc1ccc(cc1)C[C@H]1c3c(cc4c(c3Oc3cc5c(cc3OC)CCN(C)[C@@H]5C2)OCO4)CCN1C', 'inactive'),
  ('CCNc1cc(O)ccc1C', 'inactive'),
  ('NNCCc1ccccc1', 'inactive'),
  ('COC(=O)[C@H]1[C@H]2C[C@@H]3c4[nH]c5cc(OC)ccc5c4CCN3C[C@H]2C[C@@H](OC(=O)/C=C/c2ccc(O)c(OC)c2)[C@@H]1OC', 'inactive'),
  ('COC(=O)/C=C/c1ccccc1', 'inactive');

Input C=C(C)[C@@H]1CCC2=CC(=O)C[C@@H](C)[C@]2(C)C1 . Output activity change, negative = cytotoxicity: inactive

Input Cc1ccc2ccccc2n1 . Output activity change, negative = cytotoxicity: inactive

Input O=C1CCCN1CCO . Output activity change, negative = cytotoxicity: inactive

Input O=C(OCC(O)CO)c1ccccc1Nc1ccnc2c(C(F)(F)F)cccc12 (stereo unspecified) . Output activity change, negative = cytotoxicity: inactive

Input O=C1CCCCCCCCCCOCCCCO1 . Output activity change, negative = cytotoxicity: inactive

Input C[n+]1c2cc(N)ccc2cc2ccc(N)cc21 (tested in a mixture with another compound) . Output activity change, negative = cytotoxicity: inactive
